All figures here come from patent US6403807B1.

TEST SUMMARY: Fluorescence measurements (excitation/emission) of the dyes
Assay type: physicochemical
STUDY CONDITIONS: CH2Cl2
EXPERIMENTAL READOUT: δem (emission wavelength) (nm)

molecule="CC1(C)C2=[N+](CCCCCCCCCCCCN3/C(=C/C=C/C=C/2)C(C)(C)c2c3ccc3ccccc23)c2ccc3ccccc3c21.[Br-] [Dye 23]" measure_unit=nm observed=716
molecule="CC1(C)C2=[N+](CCCCCCCCCCCCN3/C(=C/C4=C([O-])C(=C/2)/C4=O)C(C)(C)c2c3ccc3ccccc23)c2ccc3ccccc3c21 [Dye 24]" measure_unit=nm observed=681
molecule="CC1(C)C2=[N+](CCCCCCCCCCCCN3/C(=C/C=C/C=C/2)C(C)(C)c2ccccc23)c2ccccc21.[Br-] [Dye 19]" measure_unit=nm observed=674
molecule="CC1(C)C2=[N+](CCCCCCCCCCCCN3/C(=C/C=C/C=C/C=C/2)C(C)(C)c2ccccc23)c2ccccc21.[Br-] [Dye 21]" measure_unit=nm observed=790
molecule="CC1(C)C2=[N+](CCCCCCCCCCCCN3/C(=C/C=C/C=C/C=C/2)C(C)(C)c2c3ccc3ccccc23)c2ccc3ccccc3c21 [Dye 25]" measure_unit=nm observed=820
